In this section, each of the sequences is paired with its reported Tm.
test: melting temperature; fluorescence melt of hairpins on a sequencing array, two-state fit, raised by 9.35 °C to match UV melts; conditions: sodium 0.088 M
Give just the number in °C; leave the unit off.

Guide cases for Tm, answers given:
GCTTTAGCGAAAGCTAGC (((..(((....))))))	42.3
GCAGTTCGAAAGAATGC (((.(((....))))))	41.2
CGCAGACGGAAACGTGCG (((..(((....))))))	49.3
GCTCTCCCGAAAGGGAGC (((..(((....))))))	33
GGCTGGCGAAAGCCCGCC (((.(((....))).)))	63
GTGCGCGAAAGCGATCAC ((((((....)))..)))	41
GAGACGGGAAACCGTCTC (((((((....)))))))	69
GACGTAGGAAACCACGTC (((((.(....).)))))	47.2

Lab book: Tm of GTTGTCGAAAGACTGAAC ((((((....)))..))) noted as 30.7

Lab book: Tm of GTAAGTGAAAACTTAC ((((((....)))))) noted as 48.7

Lab book: Tm of GCCGGGCGAAAGCAGGGC (((..((....))..))) noted as 62.2

Lab book: Tm of GATCTCCGAAAGGATATC (((.(((....))).))) noted as 39.3

###

test: melting temperature; fluorescence melt of hairpins on a sequencing array, two-state fit, raised by 9.35 °C to match UV melts; settings: sodium 0.088 M
In this section, each of the sequences is paired with its reported Tm.
Give just the number in °C; leave the unit off.

Guide cases for Tm, answers given:
GCGATGCGAAAGCGTGGC ((.(.((....)).).))	54.7
GTTCTTACGAAAGTAAAC (((..(((....))))))	21.9
GATCCTAATCAGGATC ((((((....))))))	50.5
GAACTGAAAAGTTC (((((....)))))	46.6

Lab note: next sequence to report on.
Lab book: Tm of GTTATCCCGAAAGGGAAC (((..(((....)))))) noted as 26.8

###

experiment: melting temperature; fluorescence melt of hairpins on a sequencing array, two-state fit, raised by 9.35 °C to match UV melts; settings: sodium 0.088 M
Please assign no whenever Tm is at or above 50 °C, and yes whenever it is below.

Would you please look over these solved cases?
GATCCAGTTTTGGATC ((((((....))))))	no
GATCTCGCGAAAGCGATC (((..(((....))))))	yes
GTAAGCGAAAGCTGCTAC ((((((....)))..)))	yes
CGAGACGGAAACGTGTCG (((.(((....))).)))	no
GATCAGCATCCTGATC ((((((....))))))	yes

For GATACCGAAAGGTGTATC ((((((....)))..))) , is the recorded Tm below the cut-off of 50 °C? yes

###

assay: folding enthalpy; higher = less favourable; fluorescence melt of hairpins on a sequencing array, two-state fit; conditions: sodium 0.088 M
PROPERTY MEASURED: folding enthalpy (kcal/mol)
Give just the number in kcal/mol; leave the unit off.

Guide cases for folding enthalpy, answers given:
GCTGGGCGAAAGCCGAGC (((.(((....))).)))	-38.5
GATCTGTAGGCAGATC ((((((....))))))	-45

Lab book: folding enthalpy of GCTGCAGGAAACCACAGC ((((..(....)..)))) noted as -24.9

Lab book: folding enthalpy of GAGTCGGGAAACTGGCTC (((.(.(....).).))) noted as -25.8

Lab book: folding enthalpy of GCAGATCGAAAGATATGC (((.(((....))).))) noted as -36.7
